System: MS2 coat protein
METHOD_DESCRIPTION: apparent Kd, MS2 coat protein; higher = weaker binding; RNA-MaP array; FMN 200 µM where present
MEASUREMENT_SETUP: designed as: OFF switch for flavin mononucleotide; no ligand
MEASUREMENT_NAME: apparent Kd (nM)

UUCAGCUCGUGAGGAUAUACAUGUGCUGGAAACAGCACUAUUAAGUUCACAUGAGGAUCACCCAUGUAGAAGGCACGAGCUGAG: 14.9
GGUCCUUCUGUUAGGAUAUGCUUUGGGCUUCCGCAGUAGAAGGAACAUGAGGAUCACCCAUGUCCGAUGCCGUC: 86
UAGAUGGCUCAGGAUAUUUGCCAACUAACUCGCGAAGAAGGGAGCACAUGAGGAUCACCCAUGUGAUCGAACGG: 18.8
AGUGAUUGCUGUGUCAGUUCACAUGAGGAUCACCCAUGUAGCUAGGAUAUCCGCAGUUACUGCUAGGAGAAGGAGCAAGGUGGC: 8.6
UUCAGCUCGUGAGGAUAUACAUGUGCUGGAAACAGCACUAUUAAGAUCACAUGAGGAUCACCCAUGUAGAAGGCACGAGCUGAG: 48
GUGUAGUGAGGAUAUCGUUGUUAGGAGGAGAAGGUAGGAGGCGAGAAGGCACAUGAGGAUCACCCAUGUAUGAG: 35.1
CUCCUACAUGAGGAUCACCCAUGUCAGGAUAUCUCAGUGGCACCUAAAUUCGCCACCCAGAGAAGGGACGUGCA: 13.9
